Measured values drawn from patent US20240277632A1 for this set.

measurementDescription: in vivo
setupConditions: rat, in vivo
assayMetric: NOAEL

// NOAEL lookup, key: C[C@H](CCC(=O)NCCS(=O)(=O)[O-])[C@H]1CC[C@H]2[C@@H]3[C@H](O)C[C@@H]4C[C@H](O)CC[C@]4(C)[C@H]3C[C@H](O)[C@]12C.[Na+] [STC, sodium taurocholate] ≥ 2.5 mg/kg
